Where do the numbers come from? From patent US20200002377A1.

System: Nuclear Factor Kappa B subunit 1 (NFKB1)
measurement_description: Innate immune response gene expression in HEKa, real time PCR array
Assay type: cell-based, human
experimental_setup: 50 μg/ml, 24 h
observable: NFKB1 fold induction respect to basal conditions

substance: Ac-EDMQRR-NH2 [PEP-49, Ac-Glu-Asp-Met-Gln-Arg-Arg-NH2]
observed_result: 1.55

substance: Ac-EQMQRR-NH2 [PEP-50, Ac-Glu-Gln-Met-Gln-Arg-Arg-NH2]
observed_result: 2.25

substance: Ac-EEMERR-NH2 [PEP-47, Ac-Glu-Glu-Met-Glu-Arg-Arg-NH2]
observed_result: 2.12

substance: Ac-EEMQRR-NH2 [PEP-1, Ac-Glu-Glu-Met-Gln-Arg-Arg-NH2]
observed_result: 2.59

substance: Ac-EEMQRKAD-NH2 [PEP-14, Ac-Glu-Glu-Met-Gln-Arg-Lys-Ala-Asp-NH2]
observed_result: 2.59

substance: Ac-DEMERRA-NH2 [PEP-40, Ac-Asp-Glu-Met-Glu-Arg-Arg-Ala-NH2]
observed_result: 2.55

substance: H-EEMQRH-NH2 [PEP-57, H-Glu-Glu-Met-Gln-Arg-His-NH2]
observed_result: 2.49

substance: Ac-NEMQRRA-NH2 [PEP-43, Ac-Asn-Glu-Met-Gln-Arg-Arg-Ala-NH2]
observed_result: 2.56

substance: Ac-EEMQRRED-NH2 [PEP-23, Ac-Glu-Glu-Met-Gln-Arg-Arg-Glu-Asp-NH2]
observed_result: 2.58

substance: Ac-QEMQRRAD-OH [PEP-32, Ac-Gln-Glu-Met-Gln-Arg-Arg-Ala-Asp-OH]
observed_result: 2.56

substance: Ac-QEMQRRAD-NH2 [PEP-9, Ac-Gln-Glu-Met-Gln-Arg-Arg-Ala-Asp-NH2]
observed_result: 2.66

substance: Ac-EEMQRHAD-NH2 [PEP-20, Ac-Glu-Glu-Met-Gln-Arg-His-Ala-Asp-NH2]
observed_result: 2.71

substance: Ac-EEMQRRPD-NH2 [PEP-22, Ac-Glu-Glu-Met-Gln-Arg-Arg-Pro-Asp-NH2]
observed_result: 2.69

substance: Ac-EEMERRA-NH2 [PEP-39, Ac-Glu-Glu-Met-Glu-Arg-Arg-Ala-NH2]
observed_result: 2.62

substance: Ac-DEMQRR-NH2 [PEP-51, Ac-Asp-Glu-Met-Gln-Arg-Arg-NH2]
observed_result: 2.41

substance: Ac-EEMQRRKD-NH2 [PEP-24, Ac-Glu-Glu-Met-Gln-Arg-Arg-Lys-Asp-NH2]
observed_result: 2.46

substance: Ac-EEMQRRAD-OH [PEP-4, Ac-Glu-Glu-Met-Gln-Arg-Arg-Ala-Asp-OH]
observed_result: 2.55

substance: Ac-EEMQRH-NH2 [PEP-53, Ac-Glu-Glu-Met-Gln-Arg-His-NH2]
observed_result: 3.37

substance: Ac-EEMQKR-NH2 [PEP-46, Ac-Glu-Glu-Met-Gln-Lys-Arg-NH2]
observed_result: 2.03

substance: Ac-EEMQRRGD-NH2 [PEP-16, Ac-Glu-Glu-Met-Gln-Arg-Arg-Gly-Asp-NH2]
observed_result: 2.47

substance: Ac-EEMNRRAD-NH2 [PEP-12, Ac-Glu-Glu-Met-Asn-Arg-Arg-Ala-Asp-NH2]
observed_result: 2.58

substance: H-EEMQRRAE-NH2 [PEP-26, H-Glu-Glu-Met-Gln-Arg-Arg-Ala-Glu-NH2]
observed_result: 2.55

substance: Ac-EEMQRRG-NH2 [PEP-38, Ac-Glu-Glu-Met-Gln-Arg-Arg-Gly-NH2]
observed_result: 2.40

substance: Ac-EEMQKK-NH2 [PEP-54, Ac-Glu-Glu-Met-Gln-Lys-Lys-NH2]
observed_result: 2.15

substance: Ac-DEMQRRAD-NH2 [PEP-8, Ac-Asp-Glu-Met-Gln-Arg-Arg-Ala-Asp-NH2]
observed_result: 2.04

substance: Ac-EEMQRRAE-OH [PEP-30, Ac-Glu-Glu-Met-Gln-Arg-Arg-Ala-Glu-OH]
observed_result: 2.53

substance: Ac-EEMQRRAN-NH2 [PEP-18, Ac-Glu-Glu-Met-Gln-Arg-Arg-Ala-Asn-NH2]
observed_result: 2.69

substance: Ac-EEMDRRAD-NH2 [PEP-13, Ac-Glu-Glu-Met-Asp-Arg-Arg-Ala-Asp-NH2]
observed_result: 2.60

substance: H-EEMQRRAN-NH2 [PEP-25, H-Glu-Glu-Met-Gln-Arg-Arg-Ala-Asn-NH2]
observed_result: 2.31

substance: Ac-EEMQRRSD-NH2 [PEP-15, Ac-Glu-Glu-Met-Gln-Arg-Arg-Ser-Asp-NH2]
observed_result: 2.57

substance: Ac-EEMNRR-NH2 [PEP-48, Ac-Glu-Glu-Met-Asn-Arg-Arg-NH2]
observed_result: 1.48

substance: Ac-EEMQRR-OH [PEP-61, Ac-Glu-Glu-Met-Gln-Arg-Arg-OH]
observed_result: 1.71

substance: Ac-EELQRRAD-NH2 [PEP-10, Ac-Glu-Glu-Leu-Gln-Arg-Arg-Ala-Asp-NH2]
observed_result: 2.46

substance: Ac-EEMQRRT-NH2 [PEP-41, Ac-Glu-Glu-Met-Gln-Arg-Arg-Thr-NH2]
observed_result: 2.71

substance: Ac-EEMQRRAQ-NH2 [PEP-19, Ac-Glu-Glu-Met-Gln-Arg-Arg-Ala-Gln-NH2]
observed_result: 2.73

substance: Ac-EEMERRAD-NH2 [PEP-11, Ac-Glu-Glu-Met-Glu-Arg-Arg-Ala-Asp-NH2]
observed_result: 2.63

---

Catalogue of substances with associated NFKB1 fold induction respect to basal conditions
Test system: Nuclear Factor Kappa B subunit 1 (NFKB1)
measurement_description: Innate immune response gene expression in HEKa, real time PCR array
Assay type: cell-based, human
experimental_setup: 50 μg/ml, 24 h
observable: NFKB1 fold induction respect to basal conditions

substance: Ac-EEMQRRA-NH2 [PEP-2, Ac-Glu-Glu-Met-Gln-Arg-Arg-Ala-NH2]
observed_result: 2.19
--
substance: Ac-EEMQRRAE-NH2 [PEP-17, Ac-Glu-Glu-Met-Gln-Arg-Arg-Ala-Glu-NH2]
observed_result: 2.32
--
substance: Ac-EEIERR-NH2 [PEP-55, Ac-Glu-Glu-Ile-Glu-Arg-Arg-NH2]
observed_result: 3.39
--
substance: Ac-EEMQRK-OH [PEP-62, Ac-Glu-Glu-Met-Gln-Arg-Lys-OH]
observed_result: 1.40
--
substance: Ac-EEMQRRAD-NH2 [PEP-3, Ac-Glu-Glu-Met-Gln-Arg-Arg-Ala-Asp-NH2]
observed_result: 2.04

---

Test system: Nuclear Factor Kappa B subunit 1 (NFKB1)
measurement_description: Innate immune response gene expression in HEKa, real time PCR array
Type: cell-based, human
experimental_setup: 50 μg/ml, 24 h
Residues, ends and D or L forms follow the SMILES beside them. *: point of attachment. Palmitoyl = CCCCCCCCCCCCCCCC(=O)*; NHhexadecyl = CCCCCCCCCCCCCCCCN*
observable: NFKB1 fold induction respect to basal conditions

molecule: CCCCCCCCCCCCCCCC(=O)N[C@@H](CCC(=O)O)C(=O)N[C@@H](CCC(=O)O)C(=O)N[C@@H](CCSC)C(=O)N[C@@H](CCC(N)=O)C(=O)N[C@@H](CCCNC(=N)N)C(=O)N[C@@H](Cc1c[nH]cn1)C(N)=O [PEP-58, Palm-Glu-Glu-Met-Gln-Arg-His-NH2] (Palmitoyl-EEMQRH-NH2)
observed_result: 1.87

molecule: CCCCCCCCCCCCCCCCNC(=O)[C@H](CC(=O)O)NC(=O)[C@H](C)NC(=O)[C@H](CCCNC(=N)N)NC(=O)[C@H](CCCNC(=N)N)NC(=O)[C@H](CCC(N)=O)NC(=O)[C@H](CCSC)NC(=O)[C@H](CCC(=O)O)NC(=O)[C@H](CCC(=O)O)NC(C)=O [PEP-35] (Ac-EEMQRRAD-NHhexadecyl)
observed_result: 2.79

molecule: CCCCCCCCCCCCCCCC(=O)N[C@@H](CCC(=O)O)C(=O)N[C@@H](CCC(=O)O)C(=O)N[C@@H](CCSC)C(=O)N[C@@H](CCC(N)=O)C(=O)N[C@@H](CCCNC(=N)N)C(=O)N[C@@H](CCCNC(=N)N)C(=O)N[C@@H](C)C(=O)N[C@@H](CC(N)=O)C(N)=O [PEP-28, Palm-Glu-Glu-Met-Gln-Arg-Arg-Ala-Asn-NH2] (Palmitoyl-EEMQRRAN-NH2)
observed_result: 2.65

molecule: CCCCCCCCCCCCCCCC(=O)N[C@@H](CCC(=O)O)C(=O)N[C@@H](CCC(=O)O)C(=O)N[C@@H](CCSC)C(=O)N[C@@H](CCC(N)=O)C(=O)N[C@@H](CCCNC(=N)N)C(=O)N[C@@H](CCCNC(=N)N)C(=O)N[C@@H](C)C(=O)N[C@@H](CC(=O)O)C(N)=O [PEP-27, Palm-Glu-Glu-Met-Gln-Arg-Arg-Ala-Asp-NH2] (Palmitoyl-EEMQRRAD-NH2)
observed_result: 2.76

molecule: CCCCCCCCCCCCCCCC(=O)N[C@@H](CCC(=O)O)C(=O)N[C@@H](CCC(=O)O)C(=O)N[C@@H](CCSC)C(=O)N[C@@H](CCC(N)=O)C(=O)N[C@@H](CCCNC(=N)N)C(=O)N[C@@H](CCCNC(=N)N)C(N)=O [PEP-6, Palm-Glu-Glu-Met-Gln-Arg-Arg-NH2] (Palmitoyl-EEMQRR-NH2)
observed_result: 2.62

molecule: CCCCCCCCCCCCCCCCNC(=O)[C@H](CCCNC(=N)N)NC(=O)[C@H](CCCNC(=N)N)NC(=O)[C@H](CCC(N)=O)NC(=O)[C@H](CCSC)NC(=O)[C@H](CCC(=O)O)NC(=O)[C@H](CCC(=O)O)NC(C)=O [PEP-7, Ac-Glu-Glu-Met-Gln-Arg-Arg-NHC16H33] (Ac-EEMQRR-NHhexadecyl)
observed_result: 3.09
